# solubility kinetic per entry
# conditionInfo: buffer; pH 7.4; 200.0 µM

Answered examples (5):
- compound: "COc1cc(C(=O)Nc2ccncc2)c([N+](=O)[O-])cc1OC"
  solubility kinetic: "> 45.5 µg/mL"
- compound: "CC1(C)CC(=O)C=C(Nc2ccc(O)c(C(=O)O)c2)C1"
  solubility kinetic: "> 41.3 µg/mL"
- compound: "COC(=O)c1ccc(NC(=O)CN2C(=O)NC3(CCC(C)CC3)C2=O)cc1 (stereo unspecified)"
  solubility kinetic: "10.1 µg/mL"
- compound: "O=C(NCc1ncc(C(F)(F)F)cc1Cl)Nc1ccccc1"
  solubility kinetic: "3.1 µg/mL"
- compound: "CCOC(=O)CSc1nc(C(C)(C)C)nc2ccccc12"
  solubility kinetic: "0.7 µg/mL"

API: the following record is the query input.
Task item: Consider the compound shown here: O=C1CN(C(=O)CN2C(=O)NC(c3ccccc3)(c3ccccc3)C2=O)c2ccccc2N1 What is its recorded solubility kinetic?
Reply: 6.3 µg/mL
